- Target or test system: human mAChR M4 (Homo sapiens, UniProt P08173)
- Construct: expressed in transfected cells; host or cells: CHO-K1 (American Type Culture Collection), stably expressing hM4 and Gqi5
- Sequence (P08173 1-479): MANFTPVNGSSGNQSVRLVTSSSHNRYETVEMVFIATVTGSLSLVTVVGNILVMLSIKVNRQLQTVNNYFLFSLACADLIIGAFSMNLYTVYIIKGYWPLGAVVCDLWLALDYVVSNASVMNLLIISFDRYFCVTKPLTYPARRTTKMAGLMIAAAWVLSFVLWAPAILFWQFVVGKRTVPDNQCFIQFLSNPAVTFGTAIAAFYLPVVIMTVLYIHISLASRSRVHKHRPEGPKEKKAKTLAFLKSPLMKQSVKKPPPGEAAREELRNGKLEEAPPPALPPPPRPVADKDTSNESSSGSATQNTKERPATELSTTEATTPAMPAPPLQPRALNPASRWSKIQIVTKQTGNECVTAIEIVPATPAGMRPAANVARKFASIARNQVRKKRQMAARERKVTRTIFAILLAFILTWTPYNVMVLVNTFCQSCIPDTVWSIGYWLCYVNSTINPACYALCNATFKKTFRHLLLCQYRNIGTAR
- Test summary: mAChR M4 cell-based functional assay: calcium mobilization (Fluo-4, FDSS), potentiation of EC20 acetylcholine response in hM4-Gqi5 CHO-K1 cells
- Conditions: CHO-K1, % ACh maximum at 30 μM; human M4

Mol smiles	Measure unit	Emax at 30 µM
Cc1c(N2CCc3ncc(-c4cnccc4C(F)(F)F)cc3C2)nn2c(=O)cc(C(F)F)nc2c1C	%	48
Cc1cc(=O)n2nc(N3CCc4ncc(-c5cnccn5)cc4C3)c(C)c(C)c2n1	%	97
Cc1ccc(-c2cnc3c(c2)CN(c2nn4c(=O)cc(CC5CCCC5)nc4c(C)c2C)CC3)cn1	%	59
Cc1cc2nccc(=O)n2nc1N1CCc2ncc(Nc3ccc(F)nc3C)cc2C1	%	82
Cc1cc2nc(C3CC3)cc(=O)n2nc1N1CCc2ncc(N3CCCn4nccc43)cc2C1	%	85
Cc1cc2nc(C(F)F)cc(=O)n2nc1N1CCc2ncc(-c3ccnn3C)cc2C1	%	96
Cc1cc2nccc(=O)n2nc1N1CCc2ncc(-c3cnn4c3COCC4)cc2C1	%	68
Cc1cc2nc(C(F)(F)F)cc(=O)n2nc1N1CCc2ncc(N3CCCn4nccc43)cc2C1	%	115

---

Catalogue of molecules with associated Emax at 30 µM
- Target or test system: human mAChR M4 (Homo sapiens, UniProt P08173)
- Construct: expressed in transfected cells; host or cells: CHO-K1 (American Type Culture Collection), stably expressing hM4 and Gqi5
- Test summary: mAChR M4 cell-based functional assay: calcium mobilization (Fluo-4, FDSS), potentiation of EC20 acetylcholine response in hM4-Gqi5 CHO-K1 cells
- Conditions: CHO-K1, % ACh maximum at 30 μM; human M4
Quantity: Emax at 30 µM (%)

Mol smiles	Measure unit	Value observed
Cc1cc2nccc(=O)n2nc1N1CCc2ncc(NC(=O)C3CCOCC3)cc2C1	%	47
Cc1cc2nccc(=O)n2nc1N1CCc2ncc(-c3cnccc3C#N)cc2C1	%	34
Cc1cc(Cl)c(-c2cnc3c(c2)CN(c2nn4c(=O)cc(C(F)F)nc4c(C)c2C)CC3)cn1	%	95
Cc1cc(=O)n2nc(N3CCc4ncc(-c5ccnn5C5COC5)cc4C3)c(C)c(C)c2n1	%	74

---

- Target or test system: human mAChR M4 (Homo sapiens)
- Construct: expressed in transfected cells; host or cells: CHO-K1 (American Type Culture Collection), stably expressing hM4 and Gqi5
- Test summary: mAChR M4 cell-based functional assay: calcium mobilization (Fluo-4, FDSS), potentiation of EC20 acetylcholine response in hM4-Gqi5 CHO-K1 cells
- Conditions: CHO-K1, % ACh maximum at 30 μM; human M4
Emax at 30 µM values, listed per item

Mol smiles	Target or test system	Emax at 30 µM [%]
Cc1cc2nccc(=O)n2nc1N1CCc2ncc(-c3ncc(C)n3C)cc2C1	human mAChR M4 (Homo sapiens)	49
COCc1cc(=O)n2nc(N3CCc4ncc(-c5cc(F)ccc5C)cc4C3)c(C)cc2n1	human mAChR M4 (Homo sapiens)	67
Cc1cc2nccc(=O)n2nc1N1CCc2ncc(-c3ccccc3C(F)F)cc2C1	human mAChR M4 (Homo sapiens)	90
Cc1c(N2CCc3ncc(-c4cccs4)cc3C2)nn2c(=O)cc(C(F)F)nc2c1C	human mAChR M4 (Homo sapiens)	82
CCc1cc(=O)n2nc(N3CCc4ncc(-c5ccc(C)nc5)cc4C3)c(C)c(C)c2n1	human mAChR M4 (Homo sapiens)	104
COCc1cc(=O)n2nc(N3CCc4ncc(-c5cnc(Cl)cc5C)cc4C3)c(C)c(C)c2n1	human mAChR M4 (Homo sapiens)	109
Cc1cncc(-c2cnc3c(c2)CN(c2nn4c(=O)cc(C(F)F)nc4c(C)c2C)CC3)c1	human mAChR M4 (Homo sapiens)	85
Cc1cc(=O)n2nc(N3CCc4ncc(-c5cnn(CCN6CCOCC6)c5)cc4C3)c(C)c(C)c2n1	human mAChR M4 (Homo sapiens)	74
Cc1cc(=O)n2nc(N3CCc4ncc(-c5ccccc5O)cc4C3)c(C)cc2n1	human mAChR M4 (Homo sapiens)	62
Cc1ccc(F)cc1Nc1cnc2c(c1)CN(c1nn3c(=O)ccnc3cc1C)CC2	human mAChR M4 (Homo sapiens)	96
Cc1cc(=O)n2nc(N3CCc4ncc(-c5ccccc5Cl)cc4C3)c(C)c(C)c2n1	human mAChR M4 (Homo sapiens)	81
Cc1cc2nccc(=O)n2nc1N1CCc2ncc(NC(=O)C3(C)CCC3)cc2C1	human mAChR M4 (Homo sapiens)	66
COc1cnccc1Nc1cnc2c(c1)CN(c1nn3c(=O)ccnc3cc1C)CC2	human mAChR M4 (Homo sapiens)	64
Cc1cc(=O)n2nc(N3CCc4ncc(N5CCC6(CC5)COC6)cc4C3)c(C)c(C)c2n1	human mAChR M4 (Homo sapiens)	66
Cc1cc(=O)n2nc(N3CCc4ncc(-c5cnccc5C)cc4C3)c(C)cc2n1	human mAChR M4 (Homo sapiens)	82
Cc1cc2nccc(=O)n2nc1N1CCc2ncc(-c3cccc(C)c3C)cc2C1	human mAChR M4 (Homo sapiens)	86

---

Entries and their pEC50
- Target or test system: human mAChR M4 (Homo sapiens)
- Test summary: mAChR M4 cell-based functional assay: calcium mobilization (Fluo-4, FDSS), potentiation of EC20 acetylcholine response in hM4-Gqi5 CHO-K1 cells
- Conditions: potentiation of EC20 acetylcholine response, calcium mobilization, human M4
pEC50: −log10 of the molar value.

Molecule	pEC50
Cc1cc(=O)n2nc(N3CCc4ncc(-n5cccn5)cc4C3)c(C)cc2n1	7.01
Cc1cc2nccc(=O)n2nc1N1CCc2ncc(N3CCOC(c4ccccc4)C3)cc2C1 (stereo not shown) [Compound 2-66]	6.19
Cc1ccc(-c2cnc3c(c2)CN(c2nn4c(=O)ccnc4c(C)c2C)CC3)cc1F	6.38
Cc1cc(=O)n2nc(N3CCc4ncc(-c5cnc(C)s5)cc4C3)c(C)cc2n1	6.98

---

- Target or test system: human mAChR M4 (Homo sapiens, UniProt P08173)
- Test summary: mAChR M4 cell-based functional assay: calcium mobilization (Fluo-4, FDSS), potentiation of EC20 acetylcholine response in hM4-Gqi5 CHO-K1 cells
- Conditions: potentiation of EC20 acetylcholine response, calcium mobilization, human M4
pEC50: −log10 of the molar value.

Mol smiles	pEC50
COc1cc(C)c(-c2cnc3c(c2)CN(c2nn4c(=O)cc(C(F)F)nc4c(C)c2C)CC3)cn1	6.99
Cc1cc2nccc(=O)n2nc1N1CCc2ncc(N3CCOc4ncccc43)cc2C1	7.62
Cc1cc(=O)n2nc(N3CCc4ncc(-c5cccnc5F)cc4C3)c(C)cc2n1	6.11
Cc1cc(=O)n2nc(N3CCc4ncc(-c5cncnc5)cc4C3)c(C)cc2n1	5.06
Cc1ccncc1-c1cnc2c(c1)CN(c1nn3c(=O)ccnc3cc1C)CC2	6.95
Cc1cc(=O)n2nc(N3CCc4ncc(-c5cnn6ccccc56)cc4C3)c(C)cc2n1	6.51
Cc1cc2nccc(=O)n2nc1N1CCc2ncc(N3CCCc4cc(F)ccc43)cc2C1	7.48
Cc1c(N2CCc3ncc(-c4ccccc4Cl)cc3C2)nn2c(=O)ccnc2c1C	6.74

---

Reported Emax at 30 µM values for the following compounds.
- Target or test system: human mAChR M4 (Homo sapiens, UniProt P08173)
- Construct: expressed in transfected cells; host or cells: CHO-K1 (American Type Culture Collection), stably expressing hM4 and Gqi5
- Test summary: mAChR M4 cell-based functional assay: calcium mobilization (Fluo-4, FDSS), potentiation of EC20 acetylcholine response in hM4-Gqi5 CHO-K1 cells
- Conditions: CHO-K1, % ACh maximum at 30 μM; human M4

Mol smiles	Emax at 30 µM, %
Cc1c(N2CCc3ncc(-c4ccc(C5CC5)nc4)cc3C2)nn2c(=O)ccnc2c1C	83
Cc1nc(S(=O)(=O)Nc2cnc3c(c2)CN(c2nn4c(=O)ccnc4cc2C)CC3)cs1	31
Cc1c(N2CCc3ncc(-c4ccccc4C(C)C)cc3C2)nn2c(=O)ccnc2c1C	48
Cc1cc(=O)n2nc(N3CCc4ncc(-c5cc(F)ncc5F)cc4C3)c(C)c(C)c2n1	85
Cc1ccc2c(c1)N(c1cnc3c(c1)CN(c1nn4c(=O)ccnc4cc1C)CC3)CCO2	87
Cc1ccnnc1-c1cnc2c(c1)CN(c1nn3c(=O)ccnc3cc1C)CC2	70
COc1cncc(-c2cnc3c(c2)CN(c2nn4c(=O)ccnc4cc2C)CC3)c1	47
Cc1cc(F)ccc1-c1cnc2c(c1)CN(c1nn3c(=O)ccnc3c(C)c1C)CC2	98
